Test system: S. epidermidis ATCC 12228
Experiment: MIC, twofold serial microdilution
Type: cell-based, Staphylococcus epidermidis
Conditions: S. epidermidis ATCC 12228, 18 h, 35 °C
Method: […] Antifungal activities were assessed using Mueller–Hinton agar + 2% glucose and 0.5 µg/mL methylene blue dye medium. […] The results (diameter of the growth inhibition zone) were read after 18 h of incubation at 35 °C. […] Minimal inhibitory concentrations (the lowest concentration of a tested agent that prevents visible growth of a microorganism) were read after 18 h (bacteria) or 24 h (yeasts) of incubation at 35 °C.
testReadout: MIC (µg/mL)
Answer in µg/mL, number only, no unit symbol.

Quick note, MIC for O=[N+]([O-])c1cc(NC2=[N+](c3ccc(Cl)c([N+](=O)[O-])c3)[Cu-2]3([S]2)[S]C(Nc2ccc(Cl)c([N+](=O)[O-])c2)=[N+]3c2ccc(Cl)c([N+](=O)[O-])c2)ccc1Cl landed at 8

Quick note, MIC for O=[N+]([O-])c1cc([N+]2=C(Nc3ccc(Cl)c(Cl)c3)[S][Cu-2]23[S]C(Nc2ccc(Cl)c(Cl)c2)=[N+]3c2ccc(Cl)c([N+](=O)[O-])c2)ccc1Cl landed at 32

Quick note, MIC for O=[N+]([O-])c1cc([N+]2=C(Nc3ccc(F)c(Cl)c3)[S][Cu-2]23[S]C(Nc2ccc(F)c(Cl)c2)=[N+]3c2ccc(Cl)c([N+](=O)[O-])c2)ccc1Cl landed at 4

Quick note, MIC for O=[N+]([O-])c1cc([N+]2=C(Nc3ccccc3Br)[S][Cu-2]23[S]C(Nc2ccccc2Br)=[N+]3c2ccc(Cl)c([N+](=O)[O-])c2)ccc1Cl landed at 16

Quick note, MIC for O=[N+]([O-])c1cc([N+]2=C(Nc3ccc(Br)cc3)[S][Cu-2]23[S]C(Nc2ccc(Br)cc2)=[N+]3c2ccc(Cl)c([N+](=O)[O-])c2)ccc1Cl landed at 16

Quick note, MIC for O=[N+]([O-])c1cc([N+]2=C(Nc3ccc(I)cc3)[S][Cu-2]23[S]C(Nc2ccc(I)cc2)=[N+]3c2ccc(Cl)c([N+](=O)[O-])c2)ccc1Cl landed at 8

Quick note, MIC for O=[N+]([O-])c1cc([N+]2=C(Nc3cccc(Br)c3)[S][Cu-2]23[S]C(Nc2cccc(Br)c2)=[N+]3c2ccc(Cl)c([N+](=O)[O-])c2)ccc1Cl landed at 16

Quick note, MIC for O=[N+]([O-])c1cc([N+]2=C(Nc3ccccc3F)[S][Cu-2]23[S]C(Nc2ccccc2F)=[N+]3c2ccc(Cl)c([N+](=O)[O-])c2)ccc1Cl landed at 32

====

Provide the reported Protein Intensity, % (SODC) of each item.
System: Superoxide dismutase [Cu-Zn] (SODC_HUMAN)
Test: LC–MS proteome analysis, SODC
Type: cell-based, Homo sapiens
Details: SW480, 24 h, IC50 concentration, % of control
Answer in %, number only, no unit symbol.

Quick note, Protein Intensity, % (SODC) for O=[N+]([O-])c1cc([N+]2=C(Nc3ccccc3F)[S][Cu-2]23[S]C(Nc2ccccc2F)=[N+]3c2ccc(Cl)c([N+](=O)[O-])c2)ccc1Cl landed at 40.6

Quick note, Protein Intensity, % (SODC) for O=[N+]([O-])c1cc([N+]2=C(Nc3ccccc3Br)[S][Cu-2]23[S]C(Nc2ccccc2Br)=[N+]3c2ccc(Cl)c([N+](=O)[O-])c2)ccc1Cl landed at 68.2

Quick note, Protein Intensity, % (SODC) for O=[N+]([O-])c1cc([N+]2=C(Nc3ccc(I)cc3)[S][Cu-2]23[S]C(Nc2ccc(I)cc2)=[N+]3c2ccc(Cl)c([N+](=O)[O-])c2)ccc1Cl landed at 88.2

Quick note, Protein Intensity, % (SODC) for O=[N+]([O-])c1cc([N+]2=C(Nc3ccc(Br)cc3)[S][Cu-2]23[S]C(Nc2ccc(Br)cc2)=[N+]3c2ccc(Cl)c([N+](=O)[O-])c2)ccc1Cl landed at 75.3

Sourced from paper PMC8584173
